Assignment: determine reported self-cleavage for the given variants.
B1: Twister Ribozyme (parent)
chain: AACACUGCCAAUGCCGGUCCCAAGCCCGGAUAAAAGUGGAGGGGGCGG

Variants of: B1
experiment.notes: self-cleavage, relative activity (ratio to wild type); higher = more cleavage; co-transcriptional

Find the recorded self-cleavage belonging to C9A C25G and report it.
0.0787

Quick one: self-cleavage of C26A A33U ?
0.534

What does the record list as self-cleavage for U12C C15A ?
0.739

What value of self-cleavage has been reported for the following variant? G36C G39U
0.128

Name the recorded self-cleavage for C25A G45A .
0.0857

Would you mind telling me what self-cleavage value was observed for U12C G48A ?
0.952

What value of measured self-cleavage is listed for G39A C46G ?
0.537

Param item = C8U C21A ; retrieve measured self-cleavage.
0.0385

Bench note: what self-cleavage did G24C C27G show?
0.134

What value of self-cleavage has been reported for the following variant? C15G U37G
0.143

Entry C3G G45A has what self-cleavage?
0.479

Requested read-out: self-cleavage. Entry: G16C G41C
0.0971

Recorded self-cleavage for A23G A32C , please?
0.366

Give its self-cleavage value. Item: A2G G28C
0.241

Entry under review: A1G G45U . Reported self-cleavage?
0.274

Any idea what self-cleavage was measured for A4U C9A ?
0.0614

Please give the measured self-cleavage for this variant: A1G G42A
0.215

What measured self-cleavage goes with A33U G48A ?
0.889

What does the record list as self-cleavage for C15G C27G ?
0.0738

For the variant shown here, U6A G24C , give the reported self-cleavage.
0.399

Report self-cleavage for G7C G29A please.
0.0857

# get_value(readout='self-cleavage', item= A34U G39A )
0.199

Fill in: self-cleavage of U12C G48U is ___
1.03

Any idea what its self-cleavage is? The variant is A2G G28U
0.286

Give its self-cleavage value. Item: C15A C25A
0.0919

What value of self-cleavage has been reported for the following variant? C14A A35C
0.863

Entry under review: C9U G29U . Reported self-cleavage?
0.606

// lookup self-cleavage for A33U A35U
0.926

# get_value(readout='self-cleavage', item= G17U A30G )
0.265

For C25U G38A , what is its reported self-cleavage?
0.581

Name the reported self-cleavage value associated with the variant A1G U18G
0.136

Which measured self-cleavage value corresponds to A2C C27U ?
0.0597

Form field: reported self-cleavage of A40C G45A
0.23

Recorded self-cleavage of C15G G44U , please.
0.075

For G16A C27G , what is its reported self-cleavage?
0.745

What value of measured self-cleavage is listed for A30G G39C ?
0.159

What does the record list as self-cleavage for A33U C46A ?
0.851

Recorded self-cleavage for G7U U12C , please?
0.0693

Value lookup for self-cleavage; key = C8G C19G
0.0626

Param item = A23U U31A ; retrieve measured self-cleavage.
0.502

Which value of self-cleavage has been reported for A23G G44C in the records?
0.508

What measured self-cleavage goes with G7C C27G ?
0.073

Tell me the measured self-cleavage of C8A G28U , please.
0.22

Param item = A30U A33G ; retrieve measured self-cleavage.
1.03

// self-cleavage lookup, key: A4C G38C
0.61

Data request, read-out self-cleavage, for G24C G29C
0.104

Name the recorded self-cleavage for G29A G48U .
0.916

For the variant G13A G17U , what self-cleavage is on record?
0.108

Suppose we examine the variant A10U C27G ; what self-cleavage value has been reported?
0.057

# input variant: A11U A35G ; wanted: its self-cleavage
0.919

What does the data say about its self-cleavage? Entry: G28C A35C
0.912

# lookup: self-cleavage of C25G C26U
0.0513

I have this variant here, C5A G28U , and I need its recorded self-cleavage.
0.282

Give its self-cleavage value. Item: C5G G17A
0.0746

Query (variant): A23C G36A ; field requested: self-cleavage
0.09

Param item = C19A C25U ; retrieve measured self-cleavage.
0.0834

# query: self-cleavage of entry G28U G39A
0.362

Return reported self-cleavage; argument: G7U A32G
0.0756

# lookup: self-cleavage of C8G A34C
0.121

Report self-cleavage for A4U G44A please.
0.248

Which self-cleavage value is on record for U12A G38A ?
1.08

// returns reported self-cleavage for input A2U A32G
0.605

Could you tell me which self-cleavage is on file for G41A G47U ?
0.236

Consider the variant shown here: A11U C26G What is its recorded self-cleavage?
0.31

I would be grateful if you could share the reported self-cleavage for G13A C25A .
0.0972

What measured self-cleavage goes with C5U A23C ?
0.116

Quick one: self-cleavage for C27U G43C ?
0.135

What measured self-cleavage goes with A4G G45C ?
0.294

self-cleavage lookup needed for C19U C26G , thanks.
0.0861

So what does the record say about self-cleavage for A4U U6C ?
0.0522

State the recorded self-cleavage for this entry: A23C G29C
0.0814

Fill in the blank: the reported self-cleavage of C3U G17U is ____.
0.0762

Quick check: self-cleavage of A10U U18A ?
0.546

What does the data say about its self-cleavage? Entry: G7C A34U
0.067

For the variant shown here, C20A G36C , give the reported self-cleavage.
0.0494

What self-cleavage value was documented for this variant, U6A G44U ?
0.925

Given G28C G45A , state its recorded self-cleavage.
0.552

Consider the variant G17C C27U and give its measured self-cleavage.
0.0804

What self-cleavage value was documented for this variant, A11U A34C ?
0.365

Report self-cleavage for G28A G48U please.
0.778

Requested field: self-cleavage. Item: C5G U12C
0.896

Can you share its self-cleavage? I mean this variant: C27G G38U
0.093

I would be grateful if you could share the reported self-cleavage for A32C C46U .
0.863

Any idea what its self-cleavage is? The variant is U6A A23U
0.191

Item under review: C8G A32U . Reported self-cleavage?
0.322

Query: self-cleavage; subject: U6G G38U
0.223

Fill blank: measured self-cleavage of the variant C9G C21G is ____.
0.115

Name the reported self-cleavage value associated with the variant G17C C26A
0.286

What value of measured self-cleavage is listed for C9U U12G ?
0.501

Reported self-cleavage, variant C9A C20G : ____
0.0801

Given the entry A11G G17U , report its measured self-cleavage.
0.188
